assay-summary: In vivo pharmacokinetic studies in rats
Set-up: species or system SD rats
study-conditions: Sprague-Dawley, rat, plasma, po, 10 mg/kg, rats, repeat 10 mg/kg PO QD, Day 1, individual animal
observed-property: MRT inf at 1 day (h)
The reply should be a number in h, with the unit left off.

structure-smiles | observed-property | value-units | test-result
CC[C@H](N)c1csc(C(=O)c2c[nH]c3cc(F)ccc23)n1 | MRT inf at 1 day | h | 10.5

Next, consider the following compound.
QUERY: // query MRT inf at 1 day value for entry N[C@@H](c1csc(C(=O)c2c[nH]c3cc(F)ccc23)n1)C(F)(F)F
RESULT: 3.23

---

assay-summary: In vivo pharmacokinetic studies in rats
Design: species or system SD rats
study-conditions: SD, rat, plasma, iv, 2 mg/kg, rats, single 2 mg/kg IV dose, individual animal
observed-property: half-life (h)
The reply should be a number in h, with the unit left off.

QUERY: // query half-life value for entry CC[C@H](O)c1csc(C(=O)c2c[nH]c3cc(F)ccc23)n1 [ARI-164]
RESULT: 3.91

---

Tested on: human hepatocytes
assay-summary: Hepatocyte intrinsic clearance assay (metabolic stability), human hepatocytes
Format: in vitro ADME
study-conditions: Human Hepatocytes; well stirred liver model, fu=1
If the reported EH (hepatic extraction ratio) equals or exceeds 20%, assign t. If not, assign f.

compound | label-class
CC(C)(N)c1csc(C(=O)c2c[nH]c3cc(F)ccc23)n1 [ARI-226] | f

QUERY: Form field: EH (hepatic extraction ratio) at least 20%? Entry: CC[C@H](N)c1csc(C(=O)c2c[nH]c3ccc(F)cc23)n1 [ARI-218]
RESULT: t

QUERY: For O=C(c1nc(C(O)C(F)(F)F)cs1)c1c[nH]c2ccccc12 (centres unmarked) [ARI088] then?
RESULT: t

QUERY: For N[C@@H](c1csc(C(=O)c2c[nH]c3ccccc23)n1)C(F)(F)F [ARI-229] then?
RESULT: f

QUERY: For O=C(c1nc([C@@H](O)C(F)(F)F)cs1)c1c[nH]c2cc(F)ccc12 [ARI-211] then?
RESULT: t

---

assay-summary: In vivo pharmacokinetic studies in rats
Set-up: species or system SD rats
study-conditions: Sprague-Dawley (SD), rat, plasma, iv, 2 mg/kg, rats, single 2 mg/kg IV dose, Mean of 3 animals
Each entry below carries its recorded half-life.
The reply should be a number in h, with the unit left off.

structure-smiles | half-life [h]
CC[C@H](O)c1csc(C(=O)c2c[nH]c3cc(F)ccc23)n1 | 2.85

Next, consider the following molecule.
QUERY: // query half-life value for entry CC[C@@H](O)c1csc(C(=O)c2c[nH]c3cc(F)ccc23)n1
RESULT: 1.33

---

assay-summary: In vivo pharmacokinetic studies in rats
Parameters: species or system SD rats
study-conditions: Sprague-Dawley (SD), rat, plasma, po, 10 mg/kg, rats, PO 10 mg/kg repeat dose, Day 5, Mean of 3 animals; read-out: Tmax
observed-property: Tmax (h)
The reply should be a number in h, with the unit left off.

QUERY: // query Tmax value for entry CC(C)(N)c1csc(C(=O)c2c[nH]c3cc(F)ccc23)n1
RESULT: 1.67

---

assay-summary: In vivo pharmacokinetic studies in mice
Parameters: species or system Balb/C mice
study-conditions: mouse, plasma; Balb/C mice, single dose PO 40 mg/kg
observed-property: Cmax
Please answer using the number first and the unit second.

QUERY: // query Cmax value for entry CC[C@H](N)c1csc(C(=O)c2c[nH]c3cc(F)ccc23)n1
RESULT: 5000 ng/mL
